- System: MCF-10A cells
- assay protocol: MTT cell viability assay, MCF-10A
- condition label: Homo sapiens, 72 h, read-out: IC50 MCF-10A
observation type: IC50 (µM)
One number for each entry, in µM.

# count of solved cases: 6
Nc1cc(F)ccc1NC(=O)Cc1ccc(CN2CCN(C(=O)c3cc(Cc4n[nH]c(=O)c5ccccc45)ccc3F)CC2)cc1    9.83
Nc1cc(F)ccc1NC(=O)/C=C/c1ccc(CN2CCN(C(=O)c3cc(Cc4n[nH]c(=O)c5ccccc45)ccc3F)CC2)cc1    13.7
Nc1ccccc1NC(=O)Cc1ccc(CN2CCN(C(=O)c3cc(Cc4n[nH]c(=O)c5ccccc45)ccc3F)CC2)cc1    14
Nc1cc(F)ccc1NC(=O)CCc1ccc(CN2CCN(C(=O)c3cc(Cc4n[nH]c(=O)c5ccccc45)ccc3F)CC2)cc1    36.8
Nc1ccccc1NC(=O)/C=C/c1ccc(CN2CCN(C(=O)c3cc(Cc4n[nH]c(=O)c5ccccc45)ccc3F)CC2)cc1    1.45
O=C(c1cc(Cc2n[nH]c(=O)c3ccccc23)ccc1F)N1CCN(C(=O)C2CC2)CC1 [Olaparib, olaparib, reference compound]    28

Can you share its IC50? I mean this compound: "Nc1ccccc1NC(=O)CCc1ccc(CN2CCN(C(=O)c3cc(Cc4n[nH]c(=O)c5ccccc45)ccc3F)CC2)cc1"
30.1

* * *

- test target: PARP2 (Homo sapiens, UniProt Q9UGN5)
- Construct: purchased BPS Bioscience 80581
- Sequence (Q9UGN5 whole entry): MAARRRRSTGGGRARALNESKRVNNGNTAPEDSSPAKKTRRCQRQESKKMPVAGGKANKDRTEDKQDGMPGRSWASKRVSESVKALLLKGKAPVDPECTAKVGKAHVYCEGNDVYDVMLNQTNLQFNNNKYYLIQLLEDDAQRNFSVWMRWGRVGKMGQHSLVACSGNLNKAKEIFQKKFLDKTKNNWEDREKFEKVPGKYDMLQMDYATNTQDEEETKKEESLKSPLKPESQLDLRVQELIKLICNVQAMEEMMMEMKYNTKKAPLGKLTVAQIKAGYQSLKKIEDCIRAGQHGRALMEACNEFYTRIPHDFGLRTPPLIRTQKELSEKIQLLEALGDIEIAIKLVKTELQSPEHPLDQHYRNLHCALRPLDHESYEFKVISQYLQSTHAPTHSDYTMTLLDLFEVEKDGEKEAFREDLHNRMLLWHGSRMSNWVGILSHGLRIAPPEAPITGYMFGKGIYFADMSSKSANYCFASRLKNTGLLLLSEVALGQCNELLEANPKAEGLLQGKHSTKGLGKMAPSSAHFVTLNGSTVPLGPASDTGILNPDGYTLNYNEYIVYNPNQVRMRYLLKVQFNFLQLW
- assay protocol: PARP2 enzymatic inhibition assay (PARP2 Colorimetric Assay Kit)
- Format: biochemical
observation type: IC50 (nM)
Numbers only, in nM.

Nc1cc(F)ccc1NC(=O)Cc1ccc(CN2CCN(C(=O)c3cc(Cc4n[nH]c(=O)c5ccccc45)ccc3F)CC2)cc1 [Compound B202]    34.2

# map each compound to its IC50
1. Nc1ccccc1NC(=O)/C=C/c1ccc(CN2CCN(C(=O)c3cc(Cc4n[nH]c(=O)c5ccccc45)ccc3F)CC2)cc1 [Compound B101]
2. Nc1ccccc1NC(=O)CCc1ccc(CN2CCN(C(=O)c3cc(Cc4n[nH]c(=O)c5ccccc45)ccc3F)CC2)cc1 [Compound B301]
3. Nc1ccccc1NC(=O)Cc1ccc(CN2CCN(C(=O)c3cc(Cc4n[nH]c(=O)c5ccccc45)ccc3F)CC2)cc1 [Compound B201]
4. Nc1cc(F)ccc1NC(=O)/C=C/c1ccc(CN2CCN(C(=O)c3cc(Cc4n[nH]c(=O)c5ccccc45)ccc3F)CC2)cc1 [Compound B102]
5. Nc1cc(F)ccc1NC(=O)CCc1ccc(CN2CCN(C(=O)c3cc(Cc4n[nH]c(=O)c5ccccc45)ccc3F)CC2)cc1 [Compound B302]

1. 4.08
2. 70.4
3. 13.8
4. 2.13
5. 57
